Catalogue of EC50 values
- measurement description: growth suppression of beta-catenin-knockout colon cells, dose response, cell-based, HCT116, human colon tumor (AID 1045);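 also: HCT116 colon tumor cells with beta catenin knocked out; cells exposed to compound for 60 hours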
- Type: functional
Calls of active or inactive are those of the source. No rule for the calls is given here.

{"columns": ["compound", "EC50"],
 "data": [
  ["Cc1ccc(S(=O)(=O)N(CC(=O)Nc2ccc(Cl)c([N+](=O)[O-])c2)C2CCCCC2)cc1", "19 µM (active)"],
  ["Cc1nn(-c2nc3ccccc3s2)c(N)c1Sc1ccc(F)cc1", "19.6 µM (active)"],
  ["O=C1C(=O)c2c(C(=O)c3ccccc3)coc2-c2ccccc21", "8.33 µM (active)"],
  ["CN1CCN(CC(=O)N2CCn3c4c(c5cc(C6CCCCC6)ccc53)CCCC42)CC1 (centres undefined)", "3.56 µM (active)"]
]}

----------
- target system: Short transient receptor potential channel 4 (Mus musculus, UniProt Q9QUQ5)
- Sequence (Q9QUQ5 whole entry): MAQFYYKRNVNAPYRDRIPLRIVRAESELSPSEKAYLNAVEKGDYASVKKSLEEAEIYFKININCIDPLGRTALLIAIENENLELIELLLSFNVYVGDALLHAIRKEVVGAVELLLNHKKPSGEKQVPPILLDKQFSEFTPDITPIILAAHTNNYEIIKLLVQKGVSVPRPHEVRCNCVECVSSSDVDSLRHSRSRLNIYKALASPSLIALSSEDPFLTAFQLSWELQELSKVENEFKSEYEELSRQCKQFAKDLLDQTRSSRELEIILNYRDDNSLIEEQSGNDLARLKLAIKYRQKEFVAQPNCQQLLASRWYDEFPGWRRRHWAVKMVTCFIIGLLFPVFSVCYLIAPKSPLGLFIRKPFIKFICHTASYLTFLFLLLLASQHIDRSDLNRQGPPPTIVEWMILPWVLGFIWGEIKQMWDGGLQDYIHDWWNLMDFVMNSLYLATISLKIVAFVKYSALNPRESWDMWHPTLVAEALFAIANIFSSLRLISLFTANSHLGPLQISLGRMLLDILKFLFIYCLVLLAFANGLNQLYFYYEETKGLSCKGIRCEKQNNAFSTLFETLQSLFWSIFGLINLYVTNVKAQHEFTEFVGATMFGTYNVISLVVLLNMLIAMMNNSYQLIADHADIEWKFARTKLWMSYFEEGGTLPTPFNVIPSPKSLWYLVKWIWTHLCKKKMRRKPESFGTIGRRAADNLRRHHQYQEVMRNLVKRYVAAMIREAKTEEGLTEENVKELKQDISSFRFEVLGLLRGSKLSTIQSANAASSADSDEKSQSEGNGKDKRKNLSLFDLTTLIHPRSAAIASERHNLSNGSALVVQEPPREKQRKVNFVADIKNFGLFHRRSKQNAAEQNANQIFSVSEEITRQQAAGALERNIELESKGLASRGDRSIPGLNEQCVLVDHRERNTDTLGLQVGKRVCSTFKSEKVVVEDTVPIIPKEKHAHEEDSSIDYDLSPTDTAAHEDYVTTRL
- measurement description: mouse TRPC4 channel inhibitors, dose response, cell-based, HEK293 TRPC4/mu-opioid, Fluo-4 calcium (AID 434942);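 also: potency of inhibitors blocking the TRPC4 calcium response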
- Type: functional
The source made the active and inactive calls. The rule behind the calls is not given here.
Catalogue of EC50 values
measured parameter: EC50

{"columns": ["molecule", "measured parameter", "value observed"],
 "data": [
  ["CC(=O)Nc1cccc(C(=O)NCC2(N3CCCCC3)CCCCC2)c1", "EC50", "2.66 µM (active)"],
  ["CCOC(=O)C1=C(C)NC(=O)CC1c1cc2c(cc1[N+](=O)[O-])OCO2 (stereo unspecified)", "EC50", "1.68 µM (active)"],
  ["Cc1ccc(Nc2cc(C)nc3c(C)cccc23)cc1", "EC50", "0.531 µM (active)"],
  ["CCOc1cc(CNCCCN2CCOCC2)cc(Br)c1OCc1ccccc1Cl", "EC50", "4.22 µM (active)"],
  ["NC(=O)N/N=C1\\c2ccccc2-c2c(C(N)=O)cccc21", "EC50", "1.5 µM (active)"],
  ["Cn1cc(CN2CCCCC2CO)c(-c2ccc(Oc3ccccc3)cc2)n1 (stereo unspecified)", "EC50", "7.5 µM (active)"]
]}

----------
- target system: Aminopeptidase N (Plasmodium falciparum FcB1/Columbia, UniProt O96935)
- Sequence (O96935 whole entry): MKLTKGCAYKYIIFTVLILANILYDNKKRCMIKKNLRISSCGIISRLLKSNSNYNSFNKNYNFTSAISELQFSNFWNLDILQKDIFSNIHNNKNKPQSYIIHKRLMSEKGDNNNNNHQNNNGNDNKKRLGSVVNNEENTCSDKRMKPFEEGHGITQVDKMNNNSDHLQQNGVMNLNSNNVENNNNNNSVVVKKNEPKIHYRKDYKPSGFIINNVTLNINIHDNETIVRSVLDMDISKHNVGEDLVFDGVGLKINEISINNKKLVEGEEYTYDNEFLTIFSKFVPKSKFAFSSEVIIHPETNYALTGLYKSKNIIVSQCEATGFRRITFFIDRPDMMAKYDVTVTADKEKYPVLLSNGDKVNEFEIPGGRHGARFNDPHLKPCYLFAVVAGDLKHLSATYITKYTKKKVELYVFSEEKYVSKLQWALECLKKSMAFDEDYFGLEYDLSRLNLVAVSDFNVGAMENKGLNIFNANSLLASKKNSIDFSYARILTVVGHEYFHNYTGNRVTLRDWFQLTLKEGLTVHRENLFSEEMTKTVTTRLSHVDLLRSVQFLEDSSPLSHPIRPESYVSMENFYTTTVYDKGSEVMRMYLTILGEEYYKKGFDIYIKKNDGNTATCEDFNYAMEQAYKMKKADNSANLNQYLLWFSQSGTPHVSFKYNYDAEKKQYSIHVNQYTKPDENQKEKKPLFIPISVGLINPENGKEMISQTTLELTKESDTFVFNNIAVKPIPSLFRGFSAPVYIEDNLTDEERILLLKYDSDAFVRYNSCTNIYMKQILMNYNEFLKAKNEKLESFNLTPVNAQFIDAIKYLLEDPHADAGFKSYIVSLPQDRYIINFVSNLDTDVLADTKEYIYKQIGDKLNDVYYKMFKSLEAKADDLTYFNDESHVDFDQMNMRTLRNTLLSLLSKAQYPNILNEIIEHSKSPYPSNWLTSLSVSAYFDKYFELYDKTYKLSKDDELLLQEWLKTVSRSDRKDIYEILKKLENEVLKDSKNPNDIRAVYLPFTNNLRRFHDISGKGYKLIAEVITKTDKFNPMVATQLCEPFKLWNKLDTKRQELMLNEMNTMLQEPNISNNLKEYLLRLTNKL
- measurement description: P. falciparum M1AAP inhibitors, biochemical, fluorogenic H-Leu-NHMec substrate, 1536-well (AID 1445)
- Set-up: species or system Plasmodium falciparum 3D7, 3D7
Active and inactive are the calls of the source. The rule behind the calls is not given here.

{"columns": ["compound", "IC50"],
 "data": [
  ["CC(C)S(=O)(=O)C1=NSC2=NC(=O)/C(=C\\c3ccc(-c4ccccc4)o3)C(=N)N21", "45.6 µM (active)"],
  ["Cc1oc2c(cc(NS(=O)(=O)c3ccc4c5c(cccc35)C(=O)N4)c3ccccc32)c1C(=O)OC(C)C", "36.7 µM (active)"],
  ["COc1cccc(C2CC(c3c(O)nc4ccc(Cl)cc4c3-c3ccccc3)=NN2S(C)(=O)=O)c1OC (stereo unspecified)", "78.2 µM (active)"],
  ["O=[N+]([O-])c1cc(Br)c(O)c(/C=N/Nc2nnnn2-c2cccc3ccccc23)c1", "6.79 µM (active)"],
  ["O=C(NNC(=O)c1ccc(O)cc1O)c1ccc(Cl)cc1", "58.1 µM (active)"],
  ["C=CCn1c(=O)/c(=C/c2ccc(O)cc2)s/c1=C(/C#N)c1nnc2n1CCCCC2", "51.1 µM (active)"]
]}
